target: wild-type Androgen Receptor (AR-wt) (Homo sapiens)
Construct: expressed in transfected cells; host or cells: LNCaP
Sequence (P10275 1-920): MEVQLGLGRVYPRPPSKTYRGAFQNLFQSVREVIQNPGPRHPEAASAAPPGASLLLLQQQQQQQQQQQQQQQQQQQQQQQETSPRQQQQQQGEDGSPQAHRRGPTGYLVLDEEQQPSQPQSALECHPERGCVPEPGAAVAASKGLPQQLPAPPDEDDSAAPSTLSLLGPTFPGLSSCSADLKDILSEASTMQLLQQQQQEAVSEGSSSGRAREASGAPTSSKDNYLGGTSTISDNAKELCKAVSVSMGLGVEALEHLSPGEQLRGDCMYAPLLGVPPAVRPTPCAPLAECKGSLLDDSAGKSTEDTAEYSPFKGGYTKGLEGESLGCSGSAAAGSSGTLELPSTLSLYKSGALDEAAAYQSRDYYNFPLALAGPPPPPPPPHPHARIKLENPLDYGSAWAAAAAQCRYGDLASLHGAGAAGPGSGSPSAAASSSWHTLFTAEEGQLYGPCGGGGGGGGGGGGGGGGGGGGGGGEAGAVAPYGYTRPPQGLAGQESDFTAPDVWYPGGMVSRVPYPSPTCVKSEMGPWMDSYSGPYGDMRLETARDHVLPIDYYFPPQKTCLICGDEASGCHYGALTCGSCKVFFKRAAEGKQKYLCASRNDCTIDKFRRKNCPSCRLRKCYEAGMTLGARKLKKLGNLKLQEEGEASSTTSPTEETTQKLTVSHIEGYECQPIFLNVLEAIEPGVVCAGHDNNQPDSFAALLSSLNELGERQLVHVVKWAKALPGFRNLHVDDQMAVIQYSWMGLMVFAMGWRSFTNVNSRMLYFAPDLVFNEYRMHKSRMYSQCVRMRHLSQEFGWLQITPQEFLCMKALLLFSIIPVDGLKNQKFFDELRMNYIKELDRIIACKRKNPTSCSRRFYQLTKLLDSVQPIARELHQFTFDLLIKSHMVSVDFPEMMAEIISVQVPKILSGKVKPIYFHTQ
method: AR reporter assay, LNCaP-AR-wt AG (agonist mode)
Format: cell-based
Structures can show the parent of a compound that is named as a salt.
Please respond with reported EC50 for every item in the list.

Prompt line: Short answer please: EC50, wild-type Androgen Receptor (AR-wt) (Homo sapiens), entry CN1CCC(Oc2ccc(N3C(=S)N(c4ccc(C#N)c(C(F)(F)F)c4)C(=O)C3(C)C)cn2)CC1 [Compound 4, hydrochloride]
Response line: > 15.1 µM

Prompt line: Short answer please: EC50, wild-type Androgen Receptor (AR-wt) (Homo sapiens), entry CN1CCC(Oc2ncc(N3C(=S)N(c4ccc(C#N)c(C(F)(F)F)c4)C(=O)C34CCC4)cn2)CC1 [Compound 16]
Response line: > 15.1 µM

Prompt line: Short answer please: EC50, wild-type Androgen Receptor (AR-wt) (Homo sapiens), entry CN1CCC(Oc2ccc(N3C(=S)N(c4ccc(C#N)c(Cl)c4)C(=O)C3(C)C)cn2)CC1 [Compound 10, hydrochloride]
Response line: > 15.1 µM

Prompt line: Short answer please: EC50, wild-type Androgen Receptor (AR-wt) (Homo sapiens), entry CN1CCC(Oc2ccc(N3C(=S)N(c4ccc(C#N)c(C(F)(F)F)c4)C(=O)C34CCC4)cn2)CC1 [Compound 14]
Response line: > 15.1 µM

Prompt line: Short answer please: EC50, wild-type Androgen Receptor (AR-wt) (Homo sapiens), entry CN1CCC(Oc2ccc(N3C(=S)N(c4ccc(C#N)c(C(F)(F)F)c4)C(=O)C34CCC4)cc2)CC1 [Compound 12]
Response line: > 15.1 µM

Prompt line: Short answer please: EC50, wild-type Androgen Receptor (AR-wt) (Homo sapiens), entry CC1(C)C(=O)N(c2ccc(C#N)c(C(F)(F)F)c2)C(=S)N1c1ccc(OC2CCNCC2)nc1 [Compound 3, hydrochloride]
Response line: > 15.1 µM

Prompt line: Short answer please: EC50, wild-type Androgen Receptor (AR-wt) (Homo sapiens), entry N#Cc1ccc(N2C(=O)C3(CCC3)N(c3ccc(OC4CCNCC4)nc3)C2=S)cc1Cl [Compound 23, hydrochloride]
Response line: > 15.1 µM

* * *

Please respond with reported melting point for every item in the list.
Counter-ions that a name gives are not always drawn.
// note: answer is a bare numeric in °C

Prompt line: # get_value(readout='melting point', item= CN1CCC(Oc2ccc(N3C(=S)N(c4ccc(C#N)c(Cl)c4)C(=O)C34CCC4)cc2)CC1 )
Response line: 152.2

Prompt line: # get_value(readout='melting point', item= CC1(C)C(=O)N(c2ccc(C#N)c(C(F)(F)F)c2)C(=S)N1c1cnc(OC2CCNCC2)nc1 )
Response line: 239

Prompt line: # get_value(readout='melting point', item= CN1CCC(Oc2ccc(N3C(=S)N(c4ccc(C#N)c(Cl)c4)C(=O)C3(C)C)cn2)CC1 (as salt: hydrochloride) )
Response line: 220.9

Prompt line: # get_value(readout='melting point', item= N#Cc1ccc(N2C(=O)C3(CCC3)N(c3cnc(OC4CCNCC4)nc3)C2=S)cc1C(F)(F)F )
Response line: 137.4

Prompt line: # get_value(readout='melting point', item= CN1CCC(Oc2ncc(N3C(=S)N(c4ccc(C#N)c(C(F)(F)F)c4)C(=O)C3(C)C)cn2)CC1 )
Response line: 204.9

Prompt line: # get_value(readout='melting point', item= CN1CCC(Oc2ncc(N3C(=S)N(c4ccc(C#N)c(C(F)(F)F)c4)C(=O)C34CCC4)cn2)CC1 )
Response line: 161.9

* * *

target: F876L mutant Androgen Receptor (AR-F876L) (Homo sapiens, UniProt P10275, F877L)
Construct: expressed in transfected cells; host or cells: LNCaP
method: AR reporter assay, LNCaP-AR-F876L AG (agonist mode)
Format: cell-based
experimentalParameters: read-out: LNCaP-AR-F876L AG MAX % Stim
Counter-ions that a name gives are not always drawn.
measurementLabel: Emax

Prompt line: # get_value(readout='Emax', item= CN1CCC(Oc2ccc(N3C(=S)N(c4ccc(C#N)c(Cl)c4)C(=O)C3(C)C)cn2)CC1 [Compound 10, hydrochloride] )
Response line: 0.1%

Prompt line: # get_value(readout='Emax', item= CN1CCC(Oc2ncc(N3C(=S)N(c4ccc(C#N)c(C(F)(F)F)c4)C(=O)C3(C)C)cn2)CC1 )
Response line: -0.1%

Prompt line: # get_value(readout='Emax', item= CN1CCC(Oc2ccc(N3C(=S)N(c4ccc(C#N)c(Cl)c4)C(=O)C34CCC4)cc2)CC1 )
Response line: 0%

Prompt line: # get_value(readout='Emax', item= Cc1cc(N2C(=O)C3(CCC3)N(c3ccc(OC4CCN(C)CC4)nc3)C2=S)ccc1C#N )
Response line: 2.6%

Prompt line: # get_value(readout='Emax', item= COc1cc(N2C(=O)C3(CCC3)N(c3ccc(OC4CCN(C)CC4)nc3)C2=S)ccc1C#N )
Response line: 0.3%

Prompt line: # get_value(readout='Emax', item= CN1CCC(Oc2ncc(N3C(=S)N(c4ccc(C#N)c(C(F)(F)F)c4)C(=O)C34CCC4)cn2)CC1 )
Response line: 0.1%

* * *

target: F876L mutant Androgen Receptor (AR-F876L) (Homo sapiens, UniProt P10275, F877L)
Construct: expressed in transfected cells; host or cells: LNCaP
method: AR reporter assay, LNCaP-AR-F876L ANT (antagonist mode)
Assay type: cell-based
Where a name gives a salt, the structure may show the parent alone.
measurementLabel: IC50 (nM)
// note: answer is a bare numeric in nM

Prompt line: # get_value(readout='IC50', item= N#Cc1ccc(N2C(=O)C3(CCC3)N(c3ccc(OC4CCNCC4)nc3)C2=S)cc1C(F)(F)F [Compound 13, hydrochloride] )
Response line: 57.5

Prompt line: # get_value(readout='IC50', item= COc1cc(N2C(=O)C3(CCC3)N(c3ccc(OC4CCN(C)CC4)cc3)C2=S)ccc1C#N [Compound 19] )
Response line: 83.2

Prompt line: # get_value(readout='IC50', item= CN1CCC(Oc2ccc(N3C(=S)N(c4ccc(C#N)c(Cl)c4)C(=O)C34CCC4)cc2)CC1 [Compound 22] )
Response line: 112

Prompt line: # get_value(readout='IC50', item= CN1CCC(Oc2ccc(N3C(=S)N(c4ccc(C#N)c(C(F)(F)F)c4)C(=O)C3(C)C)cc2)CC1 [Compound 2, hydrochloride] )
Response line: 69.2

* * *

Please respond with reported melting point for every item in the list.
Counter-ions that a name gives are not always drawn.
// note: answer is a bare numeric in °C

Prompt line: # get_value(readout='melting point', item= N#Cc1ccc(N2C(=O)C3(CCC3)N(c3ccc(OC4CCNCC4)nc3)C2=S)cc1Cl (as salt: hydrochloride) [Compound 23] )
Response line: 260.1

Prompt line: # get_value(readout='melting point', item= CN1CCC(Oc2ccc(N3C(=S)N(c4ccc(C#N)c(Cl)c4)C(=O)C34CCC4)cn2)CC1 (as salt: hydrochloride) [Compound 24] )
Response line: 239

Prompt line: # get_value(readout='melting point', item= CN1CCC(Oc2ccc(N3C(=S)N(c4ccc(C#N)c(C(F)(F)F)c4)C(=O)C34CCC4)cc2)CC1 [Compound 12] )
Response line: 99.3
